B1: Androgen receptor, residues 557 to 632; numbered along this chain, P10275 (parent)
chain: QKTCLICGDEASGCHYGALTCGSCKVFFKRAAEGKQKYLCASRNDCTIDKFRRKNCPSCRLRKCYEAGMTLGARKL

- Variants of: B1
- protocol: abundance fitness (aPCA) (normalised: wild type 0, dead -1); higher = more abundant; growth selection in yeast, the domain comes from the species named
- condition: Homo sapiens
So basically, the class depends on measured abundance fitness, and the ranges are A (below -0.1), B (-0.1 to below -0.05), C (-0.05 or more)

-- ask Returns: class label. Input: H15I
-- reply B

-- ask // next record I48W
-- reply A

-- ask // next record A18H
-- reply A

-- ask // next record D9I
-- reply A

-- ask // next record K50N
-- reply C

-- ask // next record A41L
-- reply C

-- ask // next record A32W
-- reply B

-- ask // next record G8N
-- reply A

-- ask // next record T3Y
-- reply C

-- ask // next record Y38S
-- reply A

-- ask // next record C21E
-- reply A

-- ask // next record S12T
-- reply A

-- ask // next record L39Y
-- reply C

-- ask // next record S12K
-- reply B

-- ask // next record D45N
-- reply C

The reported measurements were obtained from the Human Domainome abundance scans (Beltran et al. 2025).
